Assay: COS7 lysate on small-molecule microarray, probe aHis, 635 nm (AID 1123);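 also: z-score combines 667nm fluorescence intensity with signal-to-noise per printed compound spot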
Conditions: COS7 cell lysate, fluorescence, higher = more signal
Would you mind labelling by composite z-score? At or over 0.4 is rule met, under is rule not met.

COC(=O)[C@@]1(Cc2ccccc2)[C@H]2c3cc(C(=O)N4CCCC4)[nH]c3C[C@H]2CN1C(=O)c1ccccc1 = rule met
COc1ccccc1CN1C(=O)c2ccccc2[C@@H](C(=O)NC(C)C)[C@@H]1c1ccc(CO)cc1 = rule met
O=C(CCCCCCC(=O)Nc1ccccc1)N/N=C/c1ccccc1 = rule not met
CCOC(=O)[C@@H]1[C@@H]2C(=O)N(CC)C(=O)[C@@H]2C[C@@H]1Sc1ccccc1 = rule met
O=C1O[C@@H](c2ccccc2)[C@@H](c2ccccc2)N2[C@@H](c3ccc(O)cc3)[C@]3(C(=O)Nc4ccc(C#CCCO)cc43)[C@@H](C(=O)Nc3nc4ccccc4s3)[C@H]12 = rule met

Q: I'd appreciate it if you could say whether `COCCOC(=O)N1C(=O)[C@@]2(c3cc(C#Cc4ccc(OC)cc4)ccc31)[C@H](C(=O)N1CCCCCCC1)[C@H]1C(=O)O[C@H](c3ccccc3)[C@H](c3ccccc3)N1[C@@H]2c1ccc(O)cc1` has composite z-score at least equal to 0.4.
Result: rule not met

Q: I'd appreciate it if you could say whether `CCOC(=O)C[C@H]1[C@H](OC(=O)c2ccccc2-c2ccccc2)[C@@H](NC(=O)c2ccc3ccccc3n2)c2cc(OCCCO)ccc2N1C(=O)c1ccc2ccccc2n1` has composite z-score at least equal to 0.4.
Result: rule met

Q: I'd appreciate it if you could say whether `CC(C)(C)OC(=O)CC[C@@]1(C(=O)O)N=C(c2ccc(OCCCO)cc2)O[C@@H]1c1ccccc1` has composite z-score at least equal to 0.4.
Result: rule met

Q: I'd appreciate it if you could say whether COc1ccc(NN2C(C(O)c3ccco3)C=CC3C(=O)N(C4CCCCC4)C(=O)C32)cc1 (centres undefined) has composite z-score at least equal to 0.4.
Result: rule met

Q: I'd appreciate it if you could say whether `O=C1c2ccccc2[C@@]2(Cc3ccccc3N(C3CC3)C2=O)[C@H](c2ccc(CO)cc2)N1C1CCCCC1` has composite z-score at least equal to 0.4.
Result: rule not met

* * *

Molecular target: Calmodulin-1 (Homo sapiens) (UniProt P0DP23)
Assay: calcium-bound CALM1 binders on microarrays, profiling panel, artefact control for SMM control-protein annotation, biochemical, small-molecule microarray, Cy5-labelled CALM1, plus calcium (AID 1112);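 also: score merges spot fluorescence with signal to noise from triplicate slides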
Settings: Cy5-CALM1 binding fluorescence, higher = more signal
Would you mind labelling by composite z-score? At or over 0.05 is condition met, under is condition not met.

Q: I'd appreciate it if you could say whether `O=C(CS)NCCCCCCNC(=O)[C@@H]1C[C@@H]2C(=O)N3CCC[C@H]3C(=O)N2[C@@H]1c1cccc(OCCO)c1` has composite z-score at least equal to 0.05.
Result: condition met

Q: I'd appreciate it if you could say whether `COC(=O)[C@@]1(Cc2ccc(OC)cc2)[C@H]2c3cc(C(=O)N(C)C)n(CCc4c[nH]c5ccc(O)cc45)c3C[C@H]2CN1C(=O)c1ccccc1` has composite z-score at least equal to 0.05.
Result: condition met

Q: I'd appreciate it if you could say whether `C=C(COC)/C(=C/C[C@@H](OC(=O)c1ccncc1)c1ccc(CO)o1)c1cnc2ccccc2c1` has composite z-score at least equal to 0.05.
Result: condition not met

Q: I'd appreciate it if you could say whether `COc1ccc(C#Cc2ccc3c(c2)[C@]2(C(=O)N3)[C@H](C(=O)N3CCc4cc(OC)c(OC)cc4C3)[C@H]3C(=O)O[C@H](c4ccccc4)[C@H](c4ccccc4)N3[C@@H]2c2ccc(O)cc2)cc1` has composite z-score at least equal to 0.05.
Result: condition met

Q: I'd appreciate it if you could say whether `COCCCNC(=O)[C@]1(Cc2ccccc2CN=[N+]=[N-])N=C(c2ccc(OCCCO)cc2)O[C@@H]1c1ccccc1` has composite z-score at least equal to 0.05.
Result: condition met

Q: I'd appreciate it if you could say whether `COc1ccc([Si](C)(C)[C@H]2[C@H](CCn3cc([C@H](O)c4ccccc4)nn3)O[C@@]3(C(=O)N(Cc4cccc(N5C(=O)c6cccc7cccc5c67)c4)c4ccccc43)[C@@H]2C)cc1` has composite z-score at least equal to 0.05.
Result: condition met

Q: I'd appreciate it if you could say whether `CCOC(=O)C1=CC[C@@H](c2ccccc2)N(S(=O)(=O)c2ccc(C)cc2)C1` has composite z-score at least equal to 0.05.
Result: condition not met

Q: I'd appreciate it if you could say whether `O=C1c2ccccc2[C@](Cc2ccccc2I)(C(=O)NCCN2CCOCC2)[C@H](c2ccc(CO)cc2)N1Cc1ccccc1` has composite z-score at least equal to 0.05.
Result: condition met

Q: I'd appreciate it if you could say whether `COC(=O)[C@@]1(Cc2ccccc2)[C@H]2c3cc(C(=O)N4CCCC4)n(C[C@H](O)CO)c3C[C@H]2CN1C(=O)c1ccccc1` has composite z-score at least equal to 0.05.
Result: condition met

Q: I'd appreciate it if you could say whether `CC(=O)NCCCC[C@@H]1NC(=O)[C@@H]2C[C@H](C(=O)O)[C@H](c3ccc(O)cc3)N2C1=O` has composite z-score at least equal to 0.05.
Result: condition met

Q: I'd appreciate it if you could say whether `COC(=O)[C@@]1(Cc2ccc(F)cc2)[C@H]2c3cc(C(=O)N4CCCC4)n(CCc4c[nH]c5ccc(OC)cc45)c3C[C@H]2CN1C(=O)c1ccccc1` has composite z-score at least equal to 0.05.
Result: condition met

Q: I'd appreciate it if you could say whether CN1C(=O)C2C(C1=O)C1C=C(c3ccc(CO)cc3)C2C(c2cccs2)N1Cc1cccc(OC(F)(F)F)c1 (centres undefined) has composite z-score at least equal to 0.05.
Result: condition met

Q: I'd appreciate it if you could say whether `C=CCNC(=O)[C@@H]1[C@H]2C(=O)O[C@H](c3ccccc3)[C@H](c3ccccc3)N2[C@H](c2ccccc2OCCO)[C@@]12C(=O)N(C(=O)OCCOC)c1ccc(C#CC3=CCCCC3)cc12` has composite z-score at least equal to 0.05.
Result: condition not met

Q: I'd appreciate it if you could say whether `C=CC[C@@]1(C(=O)N2CCCCC2)N=C(c2ccc(OCCCO)cc2)O[C@@H]1c1ccccc1` has composite z-score at least equal to 0.05.
Result: condition not met

* * *

Catalogue of compounds with associated composite z-score
Assay: COS7 lysate on small-molecule microarray, probe aHis, 635 nm (AID 1123);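 also: z-score combines 667nm fluorescence intensity with signal-to-noise per printed compound spot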
Details: COS7 cell lysate, fluorescence, higher = more signal
Field format: numeric only.

# annotated cases, reported composite z-score shown
C[C@H]1C2=C3C(CC[C@H]4C(OCc5ccc(F)cc5C(F)(F)F)OC[C@](C)([C@@H]34)N(C(=O)OC(C)(C)C)C2)C2COC(=O)OCC21 (some centres not stated) = 2.93
Cc1ccc(S[C@]2(C(=O)NC3CC3)CC(=O)N(Cc3ccccc3Cl)[C@@H]2c2ccc(CO)cc2I)cc1 = 2.52
CCCCN1CC=CC23O[C@@H]4/C=C\CCC(C)OC(=O)C4[C@H]2C(=O)N(CCCCCCO)[C@@H]3C1=O (some centres not stated) = 0.177
Cc1ccc(C(C)CC(O)C2C=CC3C(=O)N(c4ccccc4)C(=O)C3N2Nc2ccc(C(C)C)cc2)o1 (configuration not stated) = 1.33

Q: Indicate the recorded composite z-score value for this compound: `CCCC[C@@H]1C[C@H]1[C@@H](NC(=O)c1ccccc1)c1ccc(Cl)cc1`
Result: 0.847

Q: Indicate the recorded composite z-score value for this compound: CC=CC(O)C1C=CC2C(=O)N(C)C(=O)C2N1Nc1ccc([N+](=O)[O-])cc1[N+](=O)[O-] (configuration not stated)
Result: 1.08

Q: Indicate the recorded composite z-score value for this compound: `C=CCOC(=O)[C@H]1[C@@H]2C(=O)O[C@@H](c3ccccc3)[C@@H](c3ccccc3)N2[C@@H](c2ccc(OCCOC(=O)[C@H]3C[C@H]4C(=O)N[C@@H](CCCC[N+](C)(C)C)C(=O)N4[C@H]3c3cccc(OCCO)c3)cc2)[C@]12C(=O)Nc1ccc(I)cc12`
Result: 0.365

* * *

System: Inhibin beta A chain (activin A)
Test: INHBA (activin A) binders on microarrays, primary screen, biochemical, small-molecule microarray, 635 nm fluorescence scan (AID 1107);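 also: mouse activin A protein probed at 4.33 µg/mL on printed slides; score merges bound-protein fluorescence near 667 nm with spot signal-to-noise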
Conditions: small-molecule microarray binding, higher = more signal
Readout Label: composite z-score
Field format: numeric only.

# annotated cases, reported composite z-score shown
[N-]=[N+]=Nc1ccccc1C[C@@]1(C(=O)O)N=C(c2ccc(OCCCO)cc2)O[C@@H]1c1ccccc1 = 0.638
CCOC(=O)C1=CC[C@@H](c2ccccc2C(F)(F)F)N(S(=O)(=O)c2ccc(C)cc2)C1 = 0.685
C[C@]1(C(=O)NCCN2CCOCC2)c2ccccc2C(=O)N(Cc2ccc(OC(F)(F)F)cc2)[C@H]1c1ccc(CO)cc1 = -0.017
O=C1O[C@@H](c2ccccc2)[C@@H](c2ccccc2)N2[C@@H](c3ccccc3OCCO)[C@]3(C(=O)Nc4ccccc43)[C@@H](C(=O)NC[C@H](O)c3ccccc3)[C@H]12 = -0.189
COc1ccc([Si](C)(C)[C@H]2[C@H](CCn3cc([C@H](O)c4ccccc4)nn3)O[C@@]3(C(=O)N(Cc4ccc(N5CCOC5=O)cc4)c4ccccc43)[C@@H]2C)cc1 = -0.794
Cc1ccc(F)cc1S(=O)(=O)N[C@@H]1CCN(Cc2ccc(Oc3ccccc3)cc2)C1 = 0.192
Cc1ccc(S[C@]2(C(=O)NC3CC3)CC(=O)N(Cc3ccccc3Cl)[C@@H]2c2ccc(CO)cc2I)cc1 = 1.03
CCOc1cc(C(O)C2C=CC3C(=O)N(C)C(=O)C3N2N2CCCCC2)ccc1O (stereo not given) = 0.898

Q: Indicate the recorded composite z-score value for this compound: `Cc1ccc(S[C@]2(C(=O)NCc3ccccc3)CC(=O)N(C(C)C)[C@@H]2c2ccc(CO)cc2I)cc1`
Result: 0.929

Q: Indicate the recorded composite z-score value for this compound: CC(C)OC(=O)CC(=O)CC(O)c1cccc(C#N)c1 (stereo not given)
Result: 0.964

Q: Indicate the recorded composite z-score value for this compound: `CN(C)CCCNC(=O)[C@@H]1c2ccccc2C(=O)N(Cc2ccc(OC(F)(F)F)cc2)[C@H]1c1ccc(CO)cc1`
Result: 0.561

Q: Indicate the recorded composite z-score value for this compound: [N-]=[N+]=NCc1ccccc1C[C@]1(C(=O)NCC(O)CO)N=C(c2ccc(OCCCO)cc2)O[C@H]1c1ccccc1CN=[N+]=[N-] (stereo not given in full)
Result: 0.387
